Recorded koff values for a group of binders are listed next.
target: canine FcRn (FcRn large subunit with canine beta-2-microglobulin) (canine); experiment: SPR pH 5.5, SASA-Fc captured on BSA, FcRn 100-800 nM
Please state the figure in s⁻¹; there is no need to write the unit.

Solved cases below.
Binder: canine IgGB Fc (CH2-CH3) A426H with N-terminal SASA tag (Fc fusion, part only; not given: SASA tag, not shown: another chain or arm of the molecule; small tags and cut ends) Fc: APEMLGGPSVFIFPPKPKDTLLIARTPEVTCVVVDLDPEDPEVQISWFVDGKQMQTAKTQPREEQFNGTYRVVSVLPIGHQDWLKGKQFTCKVNNKALPSPIERTISKARGQAHQPSVYVLPPSREELSKNTVSLTCLIKDFFPPDIDVEWQSNGQQEPESKYRTTPPQLDEDGSYFLYSKLSVDKSRWQRGDTFICHVMHEALHNHYTQESLSHSPGK
koff, s⁻¹: 0.106

Binder: canine IgGB Fc (CH2-CH3) N434Y with N-terminal SASA tag (Fc fusion, part only; not given: SASA tag, not shown: another chain or arm of the molecule; small tags and cut ends) Fc: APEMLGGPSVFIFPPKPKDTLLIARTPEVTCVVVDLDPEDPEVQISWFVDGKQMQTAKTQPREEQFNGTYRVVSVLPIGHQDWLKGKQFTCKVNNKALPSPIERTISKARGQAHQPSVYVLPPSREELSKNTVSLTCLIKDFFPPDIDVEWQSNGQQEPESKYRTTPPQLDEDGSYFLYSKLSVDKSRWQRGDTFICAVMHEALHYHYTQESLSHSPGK
koff, s⁻¹: 0.0151

# input Identify measured koff associated with canine IgGB Fc (CH2-CH3) A426F with N-terminal SASA tag (Fc fusion, part only; not given: SASA tag, not shown: another chain or arm of the molecule; small tags and cut ends) Fc: APEMLGGPSVFIFPPKPKDTLLIARTPEVTCVVVDLDPEDPEVQISWFVDGKQMQTAKTQPREEQFNGTYRVVSVLPIGHQDWLKGKQFTCKVNNKALPSPIERTISKARGQAHQPSVYVLPPSREELSKNTVSLTCLIKDFFPPDIDVEWQSNGQQEPESKYRTTPPQLDEDGSYFLYSKLSVDKSRWQRGDTFICFVMHEALHNHYTQESLSHSPGK
# output 0.132

# input Identify measured koff associated with canine IgGB Fc (CH2-CH3) YTE variant (L252Y/A254T/T256E) with N-terminal SASA tag (Fc fusion, part only; not given: SASA tag, not shown: another chain or arm of the molecule; small tags and cut ends) Fc: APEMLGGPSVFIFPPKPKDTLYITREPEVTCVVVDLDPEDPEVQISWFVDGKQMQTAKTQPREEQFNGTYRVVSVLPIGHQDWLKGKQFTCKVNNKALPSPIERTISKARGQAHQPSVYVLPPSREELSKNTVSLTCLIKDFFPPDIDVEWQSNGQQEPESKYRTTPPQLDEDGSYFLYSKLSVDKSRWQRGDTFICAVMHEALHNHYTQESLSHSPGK
# output 0.046

# input Identify measured koff associated with canine IgGB Fc (CH2-CH3) N434R with N-terminal SASA tag (Fc fusion, part only; not given: SASA tag, not shown: another chain or arm of the molecule; small tags and cut ends) Fc: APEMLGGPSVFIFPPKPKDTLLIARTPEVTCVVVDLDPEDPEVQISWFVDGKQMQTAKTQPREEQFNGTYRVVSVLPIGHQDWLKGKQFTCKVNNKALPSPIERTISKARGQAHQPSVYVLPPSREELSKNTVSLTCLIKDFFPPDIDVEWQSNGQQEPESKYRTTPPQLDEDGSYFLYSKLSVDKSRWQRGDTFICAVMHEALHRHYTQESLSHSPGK
# output 0.0801
